System: NCI-H522 lung
Test: NCI tumour cell line growth inhibition, 48 h
// values below are reported TGI
Metric name: TGI (µM)

CCOC(=O)c1c2c(n(Cc3ccccc3)c1C)-c1nc[nH]c1C(=O)C2=O = 28.8
CC1=N/C(=C\c2ccc(N)cc2)C(=O)N1Nc1nnc(NN2C(=O)/C(=C/c3ccc(N)cc3)N=C2C)c2ccccc12 = 41.7
COC(=O)Nc1nc2ccc(C(=O)C3CC3)cc2[nH]1 = 16.4
CC(C)c1ccc2c(c1)CCC1C(C)(CN)CCCC21C (stereo not given) = 3.36
CCCCN(CCCC)C1(c2cc3ccccc3s2)CCCCC1 = 25.6
O=C(CSc1nc(-c2ccccc2)c(-c2ccccc2)[nH]1)N/N=C/c1ccc([N+](=O)[O-])cc1 = 28.9

====

System: SK-MEL-5 melanoma
Assay: NCI tumour cell line growth inhibition, 48 h
// values below are reported GI50
Metric name: GI50

CC(=O)N[C@@H](Cc1ccc(OP(=O)(O)O)cc1)C(=O)N[C@H]1CCC(=O)N2CCC[C@@H](C(=O)NCc3cccc4ccccc34)N2C1=O = > 25 µM
CSc1nc(SC)c2cnn(-c3ccnc4cc(Cl)ccc34)c2n1 = 51.9 µM
CC[C@@]1(O)C(=O)OCc2c1cc1n(c2=O)Cc2cc3c(OC)cccc3nc2-1 = 0.0229 µM
Clc1ccc(Nc2ncnc3ccccc23)cc1 = 21.6 µM

====

Tested on: HL-60(TB) leukemia
Experiment: NCI tumour cell line growth inhibition, 48 h; in the data active = GI50 below about 0.43 µM; inactive = the rest
Outcomes: active, inactive

O=C(NC(=S)Nc1ccc(-c2nc3ccccc3[nH]2)cc1)c1ccc2ccccc2c1 = inactive
O=C(O)c1ccc(NCn2nc(-c3ccccc3O)oc2=S)cc1O = inactive
Fc1cc(C2=Nn3c(nnc3-c3cc(F)c(Cl)cc3Cl)SC2)c(Cl)cc1Cl = inactive
CC[C@@]1(O)C(=O)OCc2c1cc1n(c2=O)Cc2cc3c(OC)cccc3nc2-1 = active
CC(=O)NS(=O)(=O)c1ccc(-n2nc(-c3ccccc3)cc2-c2cc(O)ccc2O)cc1 = inactive
Nc1n[nH]c2ccc([C@H]3[C@@H]4C5CCC(C5)[C@@H]4c4c(ccc5[nH]ncc45)N3S(=O)(=O)C3CC3)cc12 (stereo partly specified) = active

====

System: OVCAR-3 ovarian
Test: NCI tumour cell line growth inhibition, 48 h; in the data active = GI50 below about 0.43 µM; inactive = the rest
Outcomes: TRUE for active, FALSE for inactive

N#C/C(=C\c1ccc([N+](=O)[O-])cc1)n1nnc2cc(F)c(F)cc21 = FALSE
CC[C@@]1(O)C(=O)OCc2c1cc1n(c2=O)Cc2cc3c(OC)cccc3nc2-1 = TRUE
O=C(NCCNc1nccc(-c2c(-c3ccc(F)cc3)nc3sccn23)n1)Nc1cccc(C(F)(F)F)c1 = FALSE
Oc1c(CCl)cc(Cl)cc1Cc1cc(Cl)cc(Cc2cc(Cl)cc(CCl)c2O)c1O = FALSE

====

// values below are reported TGI
System: HCT-116 colon
Test: NCI tumour cell line growth inhibition, 48 h
Metric name: TGI

C=CC(C)(C)c1c(OC)oc2ccc(OC)c(C)c2c1=O = > 100 µM
CO[C@@H]1C[C@H]2[C@@H]3CC[C@H]([C@@H](C)COC(C)=O)[C@@]3(C)CC[C@@H]2[C@@]2(C)CC[C@H]3C[C@]312 = 22.2 µM
CC(C)[C@]12O[C@H]1[C@@H]1O[C@]13[C@]1(O[C@H]1C[C@H]1C4=C(CC[C@@]13C)C(=O)OC4)[C@@H]2OC(=O)OC(C)(C)C = > 100 µM
OC1CCC(COC(c2ccccc2)(c2ccccc2)c2ccccc2)O1 (configuration not stated) = 30.4 µM
CC(=O)OC1C(COC(N)=O)OC(n2c(-c3ccc(C)cc3)cc(-c3ccccc3)c(C#N)c2=O)C(OC(C)=O)C1OC(C)=O (configuration not stated) = > 100 µM
Cc1nn(C(=O)c2ccc(Cl)cc2)c2c1C(c1ccccc1)SC(N)=N2 (configuration not stated) = > 10 µM
O=P1(O)c2ccccc2CSCc2ccccc21 = > 100 µM
c1ccc2c(CNCCCN3CCN(CCCNCc4cccc5ccccc45)CC3)cccc2c1 = 2.83 µM
CC(=O)N[C@@H](Cc1ccc(OP(=O)(O)O)cc1)C(=O)N[C@H]1CCC(=O)N2CCC[C@@H](C(=O)NCc3cccc4ccccc34)N2C1=O = > 25 µM
NNC(=S)N/N=C/c1ccccn1 = > 100 µM
CN(NC(=O)c1ccc(Cl)cc1)C1=NCCCCN1 = > 100 µM
COc1cc(C2SC(N)=Nc3c2c(C)nn3C(=O)Cc2ccccc2)cc(OC)c1OC (configuration not stated) = > 100 µM
C=CCC1=C2CCCCC2CCC1=O (configuration not stated) = > 100 µM
Cc1ccc(NCCO)cc1 = > 100 µM
Cc1cc2c(=O)cc(-c3ccc(C(=O)O)cc3)oc2c(C(N)=O)c1C = > 100 µM
CC1NC(=O)c2c(-c3ccccc3)nn(-c3ccccc3)c2NC1=O (configuration not stated) = > 100 µM
C=CC[C@H](O)[C@@](NC(=O)OCc1ccccc1)(Sc1ccc(C)cc1)C(F)(F)F = 60.5 µM
